The origin of these recorded values is patent US20170355757A1.

Molecular target: human C5 (human, UniProt P01031 19-1676)
Assay: cell-based or functional assay
Kindly state Human AP IC50, hemolysis assay, 5% NHS for each of the entries shown.
I'd appreciate it if you wrote the number followed by its unit.

# example entries with known answers
H4H12166P5 (antibody, human IgG4, V domains shown, histidine-mutated CDR variant of H4H12166P; human IgG4 (S108P)) VH: QVQLQESGPGLVKPSETLSLTCTVSGDSVSSSYWTWIRQPPGKGLEWIGYIYYSGSSNYNPSLKSRATISVDTSKNQFSLKLSSVTAADTAVYYCAREGNVDTTMIHDYWGQGTLVTVSS VL: AIQMTQSPSSLSASVGDRVTITCRASQGIRNDLGWYQQKPGKAPKLLIYAASSLQSGVPSRFAGRGSGTDFTLTISSLQPEDFATYYCLQDFNYPWTFGQGTKVEIK: 65.5 nM
H4H12166P2 (antibody, human IgG4, V domains shown, histidine-mutated CDR variant of H4H12166P; human IgG4 (S108P)) VH: QVQLQESGPGLVKPSETLSLTCTVSGDSVSSSYWTWIRQPPGKGLEWIGYIYYSGSSNYNPSLKSRATISVDTSKNQFSLKLSSVTAADTAVYYCAREGNVDTTMIFDYWGQGTLVTVSS VL: AIQMTQSPSSLSASVGDRVTITCRASQGIRNDLGWYQQKPGKAPKLLIYAASSLQSGVPSRFAGRGSGTDFTLTISSLQPEDFATYYCHQDFNYPWTFGQGTKVEIK: 47.8 nM
H4H12166P8 (antibody, human IgG4, V domains shown, histidine-mutated CDR variant of H4H12166P; human IgG4 (S108P)) VH: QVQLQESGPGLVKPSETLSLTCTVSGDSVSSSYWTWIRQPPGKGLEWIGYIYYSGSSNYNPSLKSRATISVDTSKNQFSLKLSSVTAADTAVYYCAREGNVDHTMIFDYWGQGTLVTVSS VL: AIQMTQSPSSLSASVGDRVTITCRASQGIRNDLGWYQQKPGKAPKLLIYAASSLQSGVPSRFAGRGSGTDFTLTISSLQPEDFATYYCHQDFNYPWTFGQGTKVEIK: 73 nM

Here are 4 binders. What values of Human AP IC50, hemolysis assay, 5% NHS were reported for them?
1. H4H12166P9 (antibody, human IgG4, V domains shown, histidine-mutated CDR variant of H4H12166P; human IgG4 (S108P)) VH: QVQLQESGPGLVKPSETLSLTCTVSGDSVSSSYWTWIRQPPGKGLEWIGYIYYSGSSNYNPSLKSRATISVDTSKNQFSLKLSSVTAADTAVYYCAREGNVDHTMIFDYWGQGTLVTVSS VL: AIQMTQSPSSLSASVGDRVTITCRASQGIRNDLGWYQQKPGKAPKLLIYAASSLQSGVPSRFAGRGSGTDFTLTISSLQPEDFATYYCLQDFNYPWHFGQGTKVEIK
2. H4H12166P4 (antibody, human IgG4, V domains shown, histidine-mutated CDR variant of H4H12166P; human IgG4 (S108P)) VH: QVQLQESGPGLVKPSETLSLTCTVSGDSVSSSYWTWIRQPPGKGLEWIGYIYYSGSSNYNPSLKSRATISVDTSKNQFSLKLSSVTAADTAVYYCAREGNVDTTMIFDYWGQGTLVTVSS VL: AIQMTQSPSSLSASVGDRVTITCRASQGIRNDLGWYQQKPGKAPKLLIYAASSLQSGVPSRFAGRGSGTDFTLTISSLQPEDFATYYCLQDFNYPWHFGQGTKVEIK
3. H4H12166P7 (antibody, human IgG4, V domains shown, histidine-mutated CDR variant of H4H12166P; human IgG4 (S108P)) VH: QVQLQESGPGLVKPSETLSLTCTVSGDSVSSSYWTWIRQPPGKGLEWIGYIYYSGSSNYNPSLKSRATISVDTSKNQFSLKLSSVTAADTAVYYCAREHNVDTTMIFDYWGQGTLVTVSS VL: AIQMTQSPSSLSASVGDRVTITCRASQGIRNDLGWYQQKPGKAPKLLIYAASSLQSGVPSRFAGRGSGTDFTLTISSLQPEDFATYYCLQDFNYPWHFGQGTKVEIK
4. H4H12166P6 (antibody, human IgG4, V domains shown, histidine-mutated CDR variant of H4H12166P; human IgG4 (S108P)) VH: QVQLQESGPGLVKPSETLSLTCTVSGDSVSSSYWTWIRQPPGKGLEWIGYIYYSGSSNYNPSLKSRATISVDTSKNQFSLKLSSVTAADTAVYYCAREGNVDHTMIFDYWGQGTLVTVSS VL: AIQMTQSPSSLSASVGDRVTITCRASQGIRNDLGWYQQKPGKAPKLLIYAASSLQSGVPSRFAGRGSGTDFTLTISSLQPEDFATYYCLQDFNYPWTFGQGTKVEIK

1: 53.5 nM; 2: 31.7 nM; 3: 156 nM; 4: 28.4 nM
